- testSystem: Estrogen receptor beta (Homo sapiens)
- experimentDescription: OT_ER_ERbERb_1440: Odyssey Thera (OT) 24-hour HEK293T Protein-Complementation Assay for Estrogen Receptor-beta/-beta Homodimer (AID 2283380);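 note: fluorescence gain from ER beta LBD homodimer complementation read by laser scanning cytometry; scored as signal increase over DMSO baseline for both agonists and antagonists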
Active and inactive are the calls of the source. Rule for the calls: active = hit-call score of the fitted dose curve at least 0.9, where 1 is the maximum; inconclusive = response in the unintended direction; inactive = score below 0.9.
Mark one answer only. Choices: class 1 for active, class 0 for inactive

Reference set, count: 5
O=C(Nc1ccccc1)c1ccccc1I: class 0
CCCCOC(=O)c1ccccc1C(=O)OCc1ccccc1: class 1
CN(C)c1ccccc1: class 0
c1ccc2c(c1)oc1ccccc12: class 0
C=CCc1ccc2c(c1)OCO2: class 0

## Input What call does the record list for Nc1ccc(Oc2ccc(N)cc2)cc1 ?
## Output class 0

## Input What call does the record list for CCOC(=O)[C@]1(c2ccccc2)Oc2ccccc2[C@@H]1N ?
## Output class 0

## Input What call does the record list for COP(=S)(OC)SCN1C(=O)c2ccccc2C1=O ?
## Output class 0

## Input What call does the record list for Cc1cccc(N)c1N ?
## Output class 0

## Input What call does the record list for Oc1ccc2ccc3cccc4ccc1c2c34 ?
## Output class 1

## Input What call does the record list for COC(=O)c1ccccc1N ?
## Output class 0

## Input What call does the record list for Cc1ccc([N+](=O)[O-])cc1 ?
## Output class 0

## Input What call does the record list for CC(C)(C)OOC(=O)c1ccccc1 ?
## Output class 0

## Input What call does the record list for [As]#[In] ?
## Output class 0

## Input What call does the record list for C[N+](C)(C)CC1CO1 (stereo not given) ?
## Output class 0
